// data source = PubChem BioAssay AID1963964

Test system: 997726-040-R-J2-PDC tumor spheroids, viability
Test: Anticancer human tumor 997726-040-R-J2-PDC patient-derived squamous cell lung carcinoma cell line growth inhibition [PI3K]
Conditions: curve of first compound; second compound 0.1 µM; spheroids with HUVEC and MSC
Hi there, I'd appreciate the recorded IC50 for every entry that follows.

Example entries and their recorded answers appear below.
# molecule, IC50
rows = [
    ("C=CC(=O)N1CCN(c2nc(=O)n(-c3c(C)ccnc3C(C)C)c3nc(-c4c(O)cccc4F)c(F)cc23)C(C)C1 (configuration not stated) + CC(Nc1ncnc2nc[nH]c12)c1cc2cccc(Cl)c2c(=O)n1-c1ccccc1", "> 10000 nM"),
    ("Cn1ncc(Cl)c1-c1cc(C(=O)NC(CN)Cc2cccc(F)c2)sc1Cl (configuration not stated) + CC(Nc1ncnc2nc[nH]c12)c1cc2cccc(Cl)c2c(=O)n1-c1ccccc1", "118 nM"),
    ("CCN1CCN(Cc2ccc(Nc3ncc(F)c(-c4cc(F)c5nc(C)n(C(C)C)c5c4)n3)nc2)CC1 + CC(Nc1ncnc2nc[nH]c12)c1cc2cccc(Cl)c2c(=O)n1-c1ccccc1", "> 1000 nM"),
    ("Cn1nccc1Nc1nccc(-c2ccn(C(CO)c3ccc(Cl)c(F)c3)c(=O)c2)n1 (configuration not stated) + Cc1nc(NC(=O)N2CCCC2C(N)=O)sc1-c1ccnc(C(C)(C)C(F)(F)F)c1", "307 nM"),
    ("C=CC(=O)N1CCN(c2nc(=O)n(-c3c(C)ccnc3C(C)C)c3nc(-c4c(O)cccc4F)c(F)cc23)C(C)C1 (configuration not stated) + CC(Nc1ccc2c(c1)OCCn1cc(N3C(=O)OCC3C(F)F)nc1-2)C(N)=O", "< 31.6 nM"),
]

// each molecule listed below needs its IC50
1. CC(C)NCC(C(=O)N1CCN(c2ncnc3c2C(C)CC3O)CC1)c1ccc(Cl)cc1 (configuration not stated) + COc1c(OCCCN2CCOCC2)ccc2c3n(c(=NC(=O)c4cnc(N)nc4)nc12)CCN3
2. C#Cc1c(F)ccc2cc(O)cc(-c3ncc4c(N5CC6CCC(C5)N6)nc(OCC56CCCN5CC(F)C6)nc4c3F)c12 (configuration not stated) + CC(Nc1ncnc2nc[nH]c12)c1cc2cccc(Cl)c2c(=O)n1-c1ccccc1

1. < 31.6 nM
2. > 10000 nM

====

Tested on: 997726-040-R-J2-PDC tumor spheroids, viability
Experiment: Anticancer human tumor 997726-040-R-J2-PDC cell line growth inhibition [PI3K]; active = viability on the fitted dose curve at most 10% of control; inactive = the rest;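 also: spheroids exposed to compounds for seven days before readout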
Details: second compound 1 µM; first compound 0.1 µM; spheroids with HUVEC and MSC
Text: Combinatorial screen of targeted agents with the PI3K inhibitors inavolisib, alpelisib, duvelisib, and copanlisib in multi-cell type tumor spheroids A high-throughput screen of multi-cell type tumor spheroids was designed to identify active combinations of targeted small molecules and PI3K pathway inhibitors. […] Compounds. […] If the clinical Cmax for an agent had not been determined, the highest concentration tested was 10 microM. […]
Permitted responses: True (active), False (inactive)

# molecule, group.label
measured = [
    ("Cn1ncc(Cl)c1-c1cc(C(=O)NC(CN)Cc2cccc(F)c2)sc1Cl (stereo not drawn) + COc1c(OCCCN2CCOCC2)ccc2c3n(c(=NC(=O)c4cnc(N)nc4)nc12)CCN3", "True"),
    ("Cn1ncnc1[C@H]1c2n[nH]c(=O)c3cc(F)cc(c23)N[C@@H]1c1ccc(F)cc1 + Cc1nc(NC(=O)N2CCCC2C(N)=O)sc1-c1ccnc(C(C)(C)C(F)(F)F)c1", "False"),
]

Moving on to the next molecule.
Call for entry CC(Cn1ccc(-c2ccc(C#N)c(Cl)c2)n1)NC(=O)c1cc(C(C)O)[nH]n1 (stereo not drawn) + CC(Nc1ccc2c(c1)OCCn1cc(N3C(=O)OCC3C(F)F)nc1-2)C(N)=O :
False

====

Test system: 997726-040-R-J2-PDC tumor spheroids, viability
Experiment: Anticancer human tumor 997726-040-R-J2-PDC cell line growth inhibition [PI3K]; active = viability on the fitted dose curve at most 10% of control; inactive = the rest;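 also: spheroids exposed to compounds for seven days before readout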
Details: second compound 1 µM; first compound 0.316 µM; spheroids with HUVEC and MSC
Result category, one only: active, inactive

# compound, group.label
data = [
    ("CC(C)NCC(C(=O)N1CCN(c2ncnc3c2C(C)CC3O)CC1)c1ccc(Cl)cc1 (stereo unspecified) + Cc1nc(NC(=O)N2CCCC2C(N)=O)sc1-c1ccnc(C(C)(C)C(F)(F)F)c1", "inactive"),
    ("C=CC(=O)N1CCN(c2nc(=O)n(-c3c(C)ccnc3C(C)C)c3nc(-c4c(O)cccc4F)c(F)cc23)C(C)C1 (stereo unspecified) + COc1c(OCCCN2CCOCC2)ccc2c3n(c(=NC(=O)c4cnc(N)nc4)nc12)CCN3", "active"),
    ("Cn1nccc1Nc1nccc(-c2ccn(C(CO)c3ccc(Cl)c(F)c3)c(=O)c2)n1 (stereo unspecified) + CC(Nc1ccc2c(c1)OCCn1cc(N3C(=O)OCC3C(F)F)nc1-2)C(N)=O", "inactive"),
    ("C[C@@H](NC(=O)c1ncnc(N)c1Cl)c1ncc(C(=O)Nc2cc(C(F)(F)F)c(Cl)cn2)s1 + CC(Nc1ccc2c(c1)OCCn1cc(N3C(=O)OCC3C(F)F)nc1-2)C(N)=O", "inactive"),
    ("C=CC(=O)N1CCN(c2nc(=O)n(-c3c(C)ccnc3C(C)C)c3nc(-c4c(O)cccc4F)c(F)cc23)C(C)C1 (stereo unspecified) + CC(Nc1ncnc2nc[nH]c12)c1cc2cccc(Cl)c2c(=O)n1-c1ccccc1", "inactive"),
]

Query: recorded result category for CC(Cn1ccc(-c2ccc(C#N)c(Cl)c2)n1)NC(=O)c1cc(C(C)O)[nH]n1 (stereo unspecified) + Cc1nc(NC(=O)N2CCCC2C(N)=O)sc1-c1ccnc(C(C)(C)C(F)(F)F)c1 in this test
inactive

====

Test system: 997726-040-R-J2-PDC tumor spheroids, viability
Experiment: Anticancer human tumor 997726-040-R-J2-PDC cell line growth inhibition [PI3K];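 also: spheroids exposed to compounds for seven days before readout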
Conditions: curve of first compound; second compound 0.0316 µM; spheroids with HUVEC and MSC
pIC50: −log10 of the molar value.
parameter.measured: pIC50

Illustrative cases are given below, each with its answer.
# molecule, pIC50
data = [
    ("CCN1CCN(Cc2ccc(Nc3ncc(F)c(-c4cc(F)c5nc(C)n(C(C)C)c5c4)n3)nc2)CC1 + Cc1nc(NC(=O)N2CCCC2C(N)=O)sc1-c1ccnc(C(C)(C)C(F)(F)F)c1", "< 6.00"),
    ("Cn1nccc1Nc1nccc(-c2ccn(C(CO)c3ccc(Cl)c(F)c3)c(=O)c2)n1 (stereo not given) + CC(Nc1ncnc2nc[nH]c12)c1cc2cccc(Cl)c2c(=O)n1-c1ccccc1", "< 5.00"),
    ("C#Cc1c(F)ccc2cc(O)cc(-c3ncc4c(N5CC6CCC(C5)N6)nc(OCC56CCCN5CC(F)C6)nc4c3F)c12 (stereo not given) + Cc1nc(NC(=O)N2CCCC2C(N)=O)sc1-c1ccnc(C(C)(C)C(F)(F)F)c1", "< 5.00"),
    ("CC(=O)c1c(C)c2cnc(Nc3ccc(N4CCNCC4)cn3)nc2n(C2CCCC2)c1=O + Cc1nc(NC(=O)N2CCCC2C(N)=O)sc1-c1ccnc(C(C)(C)C(F)(F)F)c1", "< 7.00"),
    ("C=CC(=O)N1CCN(c2nc(=O)n(-c3c(C)ccnc3C(C)C)c3nc(-c4c(O)cccc4F)c(F)cc23)C(C)C1 (stereo not given) + Cc1nc(NC(=O)N2CCCC2C(N)=O)sc1-c1ccnc(C(C)(C)C(F)(F)F)c1", "< 5.00"),
    ("C=CC(=O)N1CCN(c2nc(=O)n(-c3c(C)ccnc3C(C)C)c3nc(-c4c(O)cccc4F)c(F)cc23)C(C)C1 (stereo not given) + COc1c(OCCCN2CCOCC2)ccc2c3n(c(=NC(=O)c4cnc(N)nc4)nc12)CCN3", "> 7.50"),
    ("CC(C)n1nc(-c2ccc3oc(N)nc3c2)c2c(N)ncnc21 + COc1c(OCCCN2CCOCC2)ccc2c3n(c(=NC(=O)c4cnc(N)nc4)nc12)CCN3", "> 9.50"),
    ("Cn1cnc2c(F)c(Nc3ccc(Br)cc3Cl)c(C(=O)NOCCO)cc21 + COc1c(OCCCN2CCOCC2)ccc2c3n(c(=NC(=O)c4cnc(N)nc4)nc12)CCN3", "> 8.02"),
]

Provide pIC50 for all items below, preserving their order.
1. C#Cc1c(F)ccc2cc(O)cc(-c3ncc4c(N5CC6CCC(C5)N6)nc(OCC56CCCN5CC(F)C6)nc4c3F)c12 (stereo not given) + CC(Nc1ncnc2nc[nH]c12)c1cc2cccc(Cl)c2c(=O)n1-c1ccccc1
2. CNC(=O)c1ccc(N2C(=S)N(c3ccc(C#N)c(C(F)(F)F)c3)C(=O)C2(C)C)cc1F + CC(Nc1ccc2c(c1)OCCn1cc(N3C(=O)OCC3C(F)F)nc1-2)C(N)=O

< 5.00
< 5.00

====

Tested on: 997726-040-R-J2-PDC tumor spheroids, viability
Assay: Anticancer human tumor 997726-040-R-J2-PDC cell line growth inhibition [PI3K];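 also: spheroids exposed to compounds for seven days before readout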
Settings: second compound 1 µM; first compound 0.1 µM; stronger effect = lower value; spheroids with HUVEC and MSC
# label = Condition met if viability, T/C < 30% else Condition not met

# compound, group.label
rows = [
    ("C#Cc1c(F)ccc2cc(O)cc(-c3ncc4c(N5CC6CCC(C5)N6)nc(OCC56CCCN5CC(F)C6)nc4c3F)c12 (stereo unspecified) + Cc1nc(NC(=O)N2CCCC2C(N)=O)sc1-c1ccnc(C(C)(C)C(F)(F)F)c1", "Condition not met"),
]

Problem: For the compound CCN1CCN(Cc2ccc(Nc3ncc(F)c(-c4cc(F)c5nc(C)n(C(C)C)c5c4)n3)nc2)CC1 + CC(Nc1ncnc2nc[nH]c12)c1cc2cccc(Cl)c2c(=O)n1-c1ccccc1 , is viability, T/C under 30%?
Condition not met

Determine whether this compound shows viability, T/C lower than 30% (ties excluded): CC1(C)CCC(Nc2ncc(C(F)(F)F)c(-c3c[nH]c4c(P(C)(C)=O)c(C#N)ccc34)n2)CN1 (stereo unspecified) + CC(Nc1ccc2c(c1)OCCn1cc(N3C(=O)OCC3C(F)F)nc1-2)C(N)=O
Condition met

Given C[C@@H](NC(=O)c1ncnc(N)c1Cl)c1ncc(C(=O)Nc2cc(C(F)(F)F)c(Cl)cn2)s1 + CC(Nc1ncnc2nc[nH]c12)c1cc2cccc(Cl)c2c(=O)n1-c1ccccc1 , is recorded viability, T/C strictly lower than 30%?
Condition not met

Determine whether this compound shows viability, T/C lower than 30% (ties excluded): Cn1ncnc1[C@H]1c2n[nH]c(=O)c3cc(F)cc(c23)N[C@@H]1c1ccc(F)cc1 + CC(Nc1ccc2c(c1)OCCn1cc(N3C(=O)OCC3C(F)F)nc1-2)C(N)=O
Condition met

Say whether its viability, T/C is strictly beneath 30%. Entry: CC(=O)c1c(C)c2cnc(Nc3ccc(N4CCNCC4)cn3)nc2n(C2CCCC2)c1=O + CC(Nc1ccc2c(c1)OCCn1cc(N3C(=O)OCC3C(F)F)nc1-2)C(N)=O
Condition met
